Origin of measurements: patent EP4714973A1

Molecular target: T1, CLL1 on the surface of cells (HL60, KG1, Hela-CLL1) (UniProt Q5QGZ9 1-265, limits assumed)
T1 construct: whole, on cells; HL60 and KG1 are human cell lines; also called CLEC12A; CD371
T1 sequence (looked up): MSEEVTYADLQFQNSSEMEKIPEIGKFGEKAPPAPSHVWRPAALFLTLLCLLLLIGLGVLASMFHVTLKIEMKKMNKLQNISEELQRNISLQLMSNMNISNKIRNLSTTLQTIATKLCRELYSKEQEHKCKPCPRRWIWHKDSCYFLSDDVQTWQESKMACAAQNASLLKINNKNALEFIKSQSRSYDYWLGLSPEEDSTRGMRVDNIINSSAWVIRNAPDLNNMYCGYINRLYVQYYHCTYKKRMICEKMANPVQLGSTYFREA
Experiment: flow cytometry, serial dilution of VHH-mIgG2a Fc on HL60 cells

binder	binding result
C7 single-domain antibody with the Fc fragment of murine IgG2a at the C-terminal (Fc fusion, not shown: a dimerising Fc or GST; small tags and cut ends, also called C7 VHH-mIgG2aFc) VHH: QVQLVESGGGLVQPGGSLRLSCAASGFTFSSYAMGWARQVPGKEVEWVSGIYSDGSTNYADSVKGRFTISRDNAKNTVYLQMNSLRPEDTAVYHCATDPTVHSDLPVWGQGTLVTVSS	binds
C9 single-domain antibody with the Fc fragment of murine IgG2a at the C-terminal (Fc fusion, not shown: a dimerising Fc or GST; small tags and cut ends, also called C9 VHH-mIgG2aFc) VHH: QVQLVESGGGLVQPGGSLRLSCAASGFTFSSYAMGWARQVPGKDVEWVSGIYSDGSTYYADSVKGRFTISRYNAKNTVYLQMNSLKPEDTAVYYCATDPTLENQTTAWGQGTQVTVSS	binds
C3 single-domain antibody with the Fc fragment of murine IgG2a at the C-terminal (Fc fusion, not shown: a dimerising Fc or GST; small tags and cut ends, also called C3 VHH-mIgG2aFc) VHH: QVQLVESGGGLVQPGGSLRLSCAASGFTFSSYAMGWARQVPGKEVEWVSGIYSDGRTYYADSVKGRFTISRDNAKNEVYLQMNSLKPEDTAVYYCAPEPGQGVGDYWGQGTQVTVSS	binds
C5 single-domain antibody with the Fc fragment of murine IgG2a at the C-terminal (Fc fusion, not shown: a dimerising Fc or GST; small tags and cut ends, also called C5 VHH-mIgG2aFc) VHH: QVQLVESGGGLVQPGGSLRLSCAASGFTFSSYDMGWARQVPGKAVEWVSGIYSDGSTYYADSVKGRFTISRDNAKNTVYLQMNSLKPEDTAVYYCATDPLTSELRSWGQGTQVTVSS	binds
C1 single-domain antibody with the Fc fragment of murine IgG2a at the C-terminal (Fc fusion, also called C1 VHH-mIgG2aFc; not shown: Fc fragment of murine IgG2a, added to the C-terminal of the VHH) QVQLVESGGGLVQPGGSLRLSCAASGFTFSSKTMGWARQVPGKAIEWLSGIYSDGSTYYADSVKGRFTISRDNAKNMVYLQMNSLKPEDTAVYYCATEDLTSYGRGTQVTVSS	binds
